Measured IC50 (3',5'-cyclic-AMP phosphodiesterase 4B (Homo sapiens))

compound: CCc1cc2c(C3=NN(CCCCOc4ccc(C5=NNC(=O)CC5C)cc4)C(=O)C3(C)C)ccc(OC)n2n1 (stereo unspecified)
target of assay: 3',5'-cyclic-AMP phosphodiesterase 4B (Homo sapiens)
Sequence (Q07343 whole entry): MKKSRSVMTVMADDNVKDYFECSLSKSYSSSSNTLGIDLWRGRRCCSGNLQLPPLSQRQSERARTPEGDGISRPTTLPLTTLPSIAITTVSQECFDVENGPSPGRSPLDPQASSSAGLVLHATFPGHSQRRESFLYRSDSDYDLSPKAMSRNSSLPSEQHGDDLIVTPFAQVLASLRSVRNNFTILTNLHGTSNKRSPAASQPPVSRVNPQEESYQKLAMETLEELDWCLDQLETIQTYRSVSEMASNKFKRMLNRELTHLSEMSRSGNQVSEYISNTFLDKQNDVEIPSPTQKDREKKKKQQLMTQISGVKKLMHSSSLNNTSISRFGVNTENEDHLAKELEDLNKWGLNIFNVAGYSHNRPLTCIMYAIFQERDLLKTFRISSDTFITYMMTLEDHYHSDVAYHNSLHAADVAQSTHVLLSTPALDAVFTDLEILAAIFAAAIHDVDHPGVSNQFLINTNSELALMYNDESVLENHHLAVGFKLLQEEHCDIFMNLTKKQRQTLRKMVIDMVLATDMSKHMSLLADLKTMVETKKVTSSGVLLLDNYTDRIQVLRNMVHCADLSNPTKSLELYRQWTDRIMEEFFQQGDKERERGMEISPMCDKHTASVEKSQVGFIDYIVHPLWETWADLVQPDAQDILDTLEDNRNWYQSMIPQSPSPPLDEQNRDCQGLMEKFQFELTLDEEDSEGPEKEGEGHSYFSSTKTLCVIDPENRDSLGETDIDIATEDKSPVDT
IC50 / nM: 0.6
--
compound: COc1ccc(C2=NN(CCCCOc3ccc(C4=NNC(=O)CC4)c(F)c3F)C(=O)CC2C)c2cc(C(F)(F)F)nn12 (stereo unspecified)
target of assay: 3',5'-cyclic-AMP phosphodiesterase 4B (Homo sapiens)
IC50 / nM: 2.2
--
compound: COc1ccc(C2=NN(CCCCOc3ccc(C4=NNC(=O)C4(C)C)c(F)c3F)C(=O)C2(C)C)n2cc(C(F)(F)F)nc12
target of assay: 3',5'-cyclic-AMP phosphodiesterase 4B (Homo sapiens)
IC50 / nM: 3.2
--
compound: CCc1cc2c(-c3ccc(=O)n(CCCCOc4ccc(C5=NNC(=O)CC5C)cc4)n3)ccc(OC)n2n1 (stereo unspecified)
target of assay: 3',5'-cyclic-AMP phosphodiesterase 4B (Homo sapiens)
IC50 / nM: 20
--
compound: COc1ccc(C2=NN(CCCCOc3ccc(C4=NNC(=O)C4(C)C)c(F)c3)C(=O)CC2C)c2cc(C(F)(F)F)nn12 (stereo unspecified)
target of assay: 3',5'-cyclic-AMP phosphodiesterase 4B (Homo sapiens)
IC50 / nM: 0.3
--
compound: COc1ccc(C2=NN(CCOc3ccc(C4=NNC(=O)CC4C)cc3)C(=O)CC2C)c2cc(C(F)(F)F)nn12 (stereo unspecified)
target of assay: 3',5'-cyclic-AMP phosphodiesterase 4B (Homo sapiens)
IC50 / nM: 0.66

FYI, the data here is from ChEMBL document CHEMBL2331441.
